- methodSummary: concentration-response growth rescue in JHY4D yeast depleted of SDO1, OD600, diseases with bone marrow failure (AID 949)
- conditionLabel: S. cerevisiae JHY4D (SDO1-depleted) growth rescue, OD600, 30 h, efflux-deficient strain, SNQ2 and PDR5 mutated; measured here: 30 h OD slope vs dose
The list shows a part of the results.
measurementKind: dose-response slope

> print(dat)
                                 chemsmiles    reading
1         CS(=O)(=O)Nc1ccc(C(=O)N2CCCC2)cc1   0.000226
2   CC(C)OC(=O)c1c(NC(=O)c2ccco2)sc2c1CCCC2   0.000949
3     CC(=O)Nc1ccc(S(=O)(=O)NCCc2ccccc2)cc1    0.00092
4                    COc1ccc(-c2nnco2)cc1OC   0.000454
5  CN(C)c1ccc(Nc2c3c4c(cccc4n(C)c2=O)C(=O)c2ccccc2-3)cc1  -0.000458
6                COc1cc(OC)nc(S(C)(=O)=O)n1   0.000101

----------
- methodSummary: concentration-response growth rescue in JHY4D yeast depleted of SDO1, OD600, diseases with bone marrow failure (AID 949)
- conditionLabel: S. cerevisiae JHY4D (SDO1-depleted) growth rescue, OD600, 30 h, efflux-deficient strain, SNQ2 and PDR5 mutated; measured here: 30 h OD slope vs dose
This is one part of the list.
Items are presented alongside their recorded dose-response slope.
measurementKind: dose-response slope

> print(dat)
                                 chemsmiles      measurementkind    reading
1  COc1ccc(/C(C)=N/NC(=O)CCC(=O)Nc2ccc(Cl)cc2Cl)c(OC)c1  dose-response slope   0.000741
2     COc1ccc(CNC(=O)c2c(C)cc(=O)oc2C)cc1OC  dose-response slope   0.000182
3  O=C(COC(=O)/C=C/c1cccc(Cl)c1)NCCc1ccccc1  dose-response slope  -0.000894

----------
- methodSummary: concentration-response growth rescue in JHY4D yeast depleted of SDO1, OD600, diseases with bone marrow failure (AID 949);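 as to OD recovery: gain in OD600 from 0 h to 30 h averaged across all seven doses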
- conditionLabel: S. cerevisiae JHY4D (SDO1-depleted) growth rescue, OD600, 30 h, efflux-deficient strain, SNQ2 and PDR5 mutated; stronger effect = higher value
The list shows a part of the results.
Items are presented alongside their recorded OD recovery.
measurementKind: OD recovery

> print(dat)
                                    compound  measurementkind  reading
 1         CS(=O)(=O)Nc1ccc(C(=O)N2CCCC2)cc1      OD recovery   0.0956
 2           Cc1[nH]c2ccccc2c1C(=O)CSCC(=O)O      OD recovery     0.11
 3  O=S(=O)(/N=C(/Nc1ccccn1)c1ccccc1)c1ccc(Cl)cc1      OD recovery   0.0469
 4   CC(C)OC(=O)c1c(NC(=O)c2ccco2)sc2c1CCCC2      OD recovery   0.0368
 5  CN(C)c1ccc(Nc2c3c4c(cccc4n(C)c2=O)C(=O)c2ccccc2-3)cc1      OD recovery   0.0269
 6  COc1cccc(-c2nnc(NC(=O)c3ccc(S(=O)(=O)N(CC(C)C)CC(C)C)cc3)o2)c1      OD recovery   0.0821
 7  COc1ccc(OCC(=O)NNC(=O)c2ccc(-c3ccccc3)cc2)cc1      OD recovery   0.0649
 8     Cc1oc2nc(SCC(=O)NCc3cccnc3)nc(N)c2c1C      OD recovery   0.0937
 9     COc1ccc(CNC(=O)c2c(C)cc(=O)oc2C)cc1OC      OD recovery   0.0773
10  CCOc1cccc2c1OC1(CCCCC1)N1N=C(c3cccnc3)CC21 (stereo unspecified)      OD recovery   0.0606
11  COc1ccc(/C(C)=N/NC(=O)CCC(=O)Nc2ccc(Cl)cc2Cl)c(OC)c1      OD recovery     0.11
